assay: chemical genetic growth profiling, strain panel (AID 1159580);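 further: tested at 20 µM; growth read once vehicle control cultures reached saturation at 30 °C; 1 = growth at the plate median or of vehicle wells; lower values mean less growth of the strain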; conditions: S. cerevisiae deletion strains, growth OD, locus YHR027C, strain rpn1, stronger effect = lower value
The campaign covered roughly 5,500 compounds. About 2,000 (36%) were called active. Roughly 18% stayed inconclusive and do not appear here. The list shows a part of the results.
molecules and their reported normalized growth
Respond with the number and no other words.

Known normalized growth results, listed for orientation:
{"columns": ["molecule", "normalized growth"],
 "data": [
  ["Cn1cc[nH]c1=S", 1],
  ["COc1ccc2c(c1)[C@@]1(C)CCC(=O)C[C@H]1CC2", 0.965],
  ["NCC1CCCCC1CC(=O)O (centres undefined)", 1.01],
  ["COc1cccc2c1CCC1CC(=O)CCC21C (centres undefined)", 1.02],
  ["CCCCCC(=O)O[C@]1(C(C)=O)CCC2C3CCC4=CC(=O)CC[C@]4(C)C3CC[C@@]21C (some centres undefined)", 0.999],
  ["CCCCCCCCCCCCCCCCOP(=O)([O-])OCC[N+](C)(C)C", 0.0701]
]}

Recorded result, COc1cccc([C@]2(O)CCCC[C@H]2CN(C)C)c1 , normalized growth: 0.959

Recorded result, CC(C)[N+](C)(CCOC(=O)C1c2ccccc2Oc2ccccc21)C(C)C , normalized growth: 1.01

Recorded result, Cc1ccc2c(c1)CC[C@H]1CC(=O)CC[C@]21C , normalized growth: 1.01

Recorded result, CC1(C)C2CC[C@]3(C)C(C(=O)C=C4[C@@H]5C[C@@](C)(C(=O)O)CC[C@]5(C)CC[C@]43C)[C@@]2(C)CC[C@@H]1OC(=O)CCC(=O)O (some centres undefined) , normalized growth: 1

Recorded result, CC(=O)O[C@]1(C(C)=O)CCC2C3C=C(C)C4=CC(=O)CCC4(C)C3CCC21C (some centres undefined) , normalized growth: 0.981

Recorded result, COc1ccc2c(c1)C1(C)CCC(=O)CC1CC2 (centres undefined) , normalized growth: 1.03

Recorded result, CC[C@@H](CO)NCCN[C@@H](CC)CO , normalized growth: 1

Recorded result, N#Cc1c(Cl)c(Cl)c(Cl)c(C#N)c1Cl , normalized growth: 0.0746

Recorded result, COc1ccc(-c2coc3c(OC)c(OC)cc(O)c3c2=O)cc1 , normalized growth: 1.01

Recorded result, S=C=NCc1ccccc1 , normalized growth: 0.103

====

test: chemical genetic growth profiling, strain panel (AID 1159580);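 further: tested at 20 µM; growth read once vehicle control cultures reached saturation at 30 °C; 1 = growth at the plate median or of vehicle wells; lower values mean less growth of the strain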; conditions: S. cerevisiae deletion strains, growth OD, locus YJL157C, strain FAR1, stronger effect = lower value
In all, about 5,500 compounds went through this assay and about 2,000 (36%) were called active. Another 18% or so got no clear call; they are omitted. The list shows a part of the results.
measured_quantity: normalized growth
Respond with the number and no other words.

{"columns": ["compound", "result_number"],
 "data": [
  ["O=C(CCN1CCCCC1)c1ccc(-c2ccccc2)cc1", 0.925],
  ["Cn1c([N+](=O)[O-])cnc1/C=C(\\C#N)C(=O)Nc1ccc(F)cc1", 0.346]
]}

Recorded result, N#Cc1c(Cl)c(Cl)c(Cl)c(Cl)c1C#N , normalized growth: 0.318

Recorded result, Cc1c(Cl)cccc1NC(=S)N1CCCN(c2ccc(C(F)(F)F)cc2[N+](=O)[O-])CC1 , normalized growth: 0.951

Recorded result, C=CC(=O)N1CCc2cc([N+](=O)[O-])ccc21 , normalized growth: 0.315

Recorded result, CC(C)(C)C1=NN(c2nc3ccc(Cl)cc3s2)C(=O)C1 , normalized growth: 0.101

Recorded result, NC(N)=Nc1nc(-c2cc(Cl)sc2Cl)cs1 , normalized growth: 0.932
